List of abundance fitness values.
B1: CD2-associated protein, residues 109 to 169; numbered along this chain, Q9Y5K6 (parent)
chain: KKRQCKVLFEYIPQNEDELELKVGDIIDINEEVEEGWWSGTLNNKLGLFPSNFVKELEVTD

# Variants of: B1
# procedureDetails: abundance fitness (aPCA) (normalised: wild type 0, dead -1); higher = more abundant; growth selection in yeast, the domain comes from the species named
# conditionDetails: Homo sapiens
Enter the number alone.

>  <residueString>
KKRQCKVLFEYIPQNEDELELKVGDIIDINEEVEEGWWSGTMNNKLGLFPSNFVKELEVTD [L42M]

>  <abundance fitness>
-0.486

$$$$
>  <residueString>
KKRQCKVLFEYIPQNEDELELKVGDIIDINEEVEEWWWSGTLNNKLGLFPSNFVKELEVTD [G36W]

>  <abundance fitness>
-0.59

$$$$
>  <residueString>
KKRQCKVLFEYIPQNEDELELKVGDIIDINEEVEEGWWSGTLNNKLGLFPSNFVKELEVTH [D61H]

>  <abundance fitness>
0.346

$$$$

# evaluate next
## Task Please report the recorded abundance fitness for KKRQCKVLFEYIPQNEDELELKVGDIIDINEEVEEGWWSGTLNNKGGLFPSNFVKELEVTD [L46G] .
## Result -0.303
